These entries and their values trace back to patent US8124647B2.

Assayed system: human androgen receptor (Homo sapiens, UniProt P10275)
Construct: expressed in transfected cells; host or cells: CHO cells, cell line CHO-AR-pMMTV-LUC 1G12-A5-CA
Sequence (P10275 1-920): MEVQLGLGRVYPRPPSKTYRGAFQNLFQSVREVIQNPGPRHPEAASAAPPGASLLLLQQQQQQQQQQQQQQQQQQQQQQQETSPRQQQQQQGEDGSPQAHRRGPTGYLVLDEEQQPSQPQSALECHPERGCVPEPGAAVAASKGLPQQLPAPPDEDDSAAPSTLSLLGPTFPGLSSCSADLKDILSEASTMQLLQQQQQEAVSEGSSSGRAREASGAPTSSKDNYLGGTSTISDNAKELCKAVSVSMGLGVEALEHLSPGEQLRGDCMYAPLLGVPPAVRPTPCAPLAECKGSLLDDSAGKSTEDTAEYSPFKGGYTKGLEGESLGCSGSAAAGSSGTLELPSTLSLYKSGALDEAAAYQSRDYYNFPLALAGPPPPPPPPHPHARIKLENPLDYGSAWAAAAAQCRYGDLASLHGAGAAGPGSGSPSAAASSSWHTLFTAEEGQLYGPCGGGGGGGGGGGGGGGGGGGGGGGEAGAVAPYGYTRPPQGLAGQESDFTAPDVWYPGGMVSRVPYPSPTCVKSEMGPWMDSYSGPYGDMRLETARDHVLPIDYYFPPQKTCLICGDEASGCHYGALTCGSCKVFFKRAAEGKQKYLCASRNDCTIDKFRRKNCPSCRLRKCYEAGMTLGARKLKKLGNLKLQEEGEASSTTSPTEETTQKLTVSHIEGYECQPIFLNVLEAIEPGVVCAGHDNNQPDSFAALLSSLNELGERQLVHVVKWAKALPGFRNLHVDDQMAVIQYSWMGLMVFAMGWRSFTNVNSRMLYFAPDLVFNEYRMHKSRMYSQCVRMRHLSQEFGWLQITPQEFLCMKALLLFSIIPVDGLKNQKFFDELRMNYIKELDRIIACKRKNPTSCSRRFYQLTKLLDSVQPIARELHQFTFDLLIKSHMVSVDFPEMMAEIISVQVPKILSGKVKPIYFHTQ
Assay method text: androgenic activity (EC50 and intrinsic activity), transactivation bioassay in CHO-AR-pMMTV-LUC cells (Table 4)
Type: cell-based
Condition notes: androgenic activity, read-out: ago EC50
Description: Compounds were tested for their Androgen Receptor activity in a transactivation assay and in a binding assay. The (anti-)androgenic activity of test compounds (EC50 and intrinsic activity) was determined in an in vitro bioassay of Chinese hamster ovary (CHO) cells stably transfected with the human androgen receptor expression plasmid and a reporter plasmid in which the MMTV-promoter is linked to the luciferase reporter gene. […]
pEC50: −log10 of the molar value.
Catalogue of pEC50 readings, one per entry.

# Compound, pEC50
measured = [
    ("O=[N+]([O-])c1ccccc1Sc1cn(Cc2cc(F)cc(F)c2)c2cc(Br)ccc12", "7.00 to 8.30"),
    ("COc1ccc2c(S(=O)(=O)c3ccccc3[N+](=O)[O-])cn(Cc3cc(F)cc(F)c3)c2c1", "> 8.30"),
    ("COc1ccc2c(Sc3ccccc3[N+](=O)[O-])cn(Cc3ccc(C)cc3)c2c1", "> 6.00"),
]

Query :: Fill in the blank: the reported pEC50 of COc1ccc2c(Sc3ccccc3[N+](=O)[O-])cn(Cc3cc(Cl)cc(Cl)c3)c2c1 is ____.
Result :: 7.00 to 8.30

Query :: If you can, please state the reported pEC50 value of COc1ccc2c([S+]([O-])c3ccccc3[N+](=O)[O-])cn(Cc3cc(F)cc(F)c3)c2c1 (stereo not shown) .
Result :: < 5.00

Query :: # get_value(readout='pEC50', item= O=C(c1ccc2c(Sc3ccccc3[N+](=O)[O-])cn(Cc3cc(F)cc(F)c3)c2c1)N1CCCC1 )
Result :: 7.00 to 8.30

Query :: So what's the measured pEC50 for this one? CN1CCN(C(=O)c2ccc3c(Sc4ccccc4[N+](=O)[O-])cn(Cc4cc(F)cc(F)c4)c3c2)CC1
Result :: 7.00 to 8.30

Query :: Any idea what pEC50 was measured for O=[N+]([O-])c1ccccc1Sc1cn(Cc2cc(F)cc(F)c2)c2ccc(F)cc12 ?
Result :: 7.00 to 8.30

Query :: Quick one: pEC50 of COc1ccc2c(Sc3ccccc3[N+](=O)[O-])cn(Cc3cccc(C)c3)c2c1 ?
Result :: 7.00 to 8.30

* * *

Assayed system: human androgen receptor (Homo sapiens, UniProt P10275)
Construct: expressed in transfected cells; host or cells: CHO cells, cell line CHO-AR-pMMTV-LUC 1G12-A5-CA
Sequence (P10275 1-920): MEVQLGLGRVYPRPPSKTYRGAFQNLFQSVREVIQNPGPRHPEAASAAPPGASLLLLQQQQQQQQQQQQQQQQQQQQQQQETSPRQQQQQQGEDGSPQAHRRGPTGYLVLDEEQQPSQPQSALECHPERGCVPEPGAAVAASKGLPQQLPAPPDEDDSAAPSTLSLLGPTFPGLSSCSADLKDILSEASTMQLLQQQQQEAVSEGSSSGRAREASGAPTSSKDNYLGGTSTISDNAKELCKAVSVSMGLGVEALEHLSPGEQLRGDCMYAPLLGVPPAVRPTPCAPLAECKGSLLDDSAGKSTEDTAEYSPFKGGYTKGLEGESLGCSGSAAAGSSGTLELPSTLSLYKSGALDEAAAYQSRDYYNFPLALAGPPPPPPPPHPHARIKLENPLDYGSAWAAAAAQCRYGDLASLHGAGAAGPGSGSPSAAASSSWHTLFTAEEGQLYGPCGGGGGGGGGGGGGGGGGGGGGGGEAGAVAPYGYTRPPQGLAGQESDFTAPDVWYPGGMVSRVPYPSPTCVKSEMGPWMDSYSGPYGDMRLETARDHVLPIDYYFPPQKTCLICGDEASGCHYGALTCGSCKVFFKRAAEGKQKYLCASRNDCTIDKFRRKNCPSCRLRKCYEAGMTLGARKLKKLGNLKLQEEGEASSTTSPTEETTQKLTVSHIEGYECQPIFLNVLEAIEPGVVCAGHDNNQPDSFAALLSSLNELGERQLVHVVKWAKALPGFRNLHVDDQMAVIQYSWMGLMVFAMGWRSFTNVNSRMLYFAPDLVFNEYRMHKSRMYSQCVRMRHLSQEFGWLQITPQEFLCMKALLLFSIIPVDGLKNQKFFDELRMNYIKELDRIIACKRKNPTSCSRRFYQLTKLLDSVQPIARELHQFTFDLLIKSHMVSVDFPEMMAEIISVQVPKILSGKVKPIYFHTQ
Assay method text: androgenic activity (EC50, potency, efficacy), transactivation bioassay in CHO-AR-pMMTV-LUC cells in the presence of 0.1 μmol/l onapristone (Table 5)
Assay type: cell-based
Condition notes: potency expressed as percentage of DHT activity; CHO-AR-pMMTV-LUC cells; in the presence of 0.1 μmol/l onapristone

# Record smiles, ago potency
rows = [
    ("N#Cc1ccc2c(Sc3ccccc3[N+](=O)[O-])cn(Cc3ccncn3)c2c1", "++ (>5%)"),
    ("O=CNc1ccc2c(Sc3ccccc3[N+](=O)[O-])cn(Cc3cncnc3)c2c1", "++ (>5%)"),
]

* * *

Assayed system: human androgen receptor (Homo sapiens, UniProt P10275)
Construct: expressed in transfected cells; host or cells: CHO cells, cell line CHO-AR-pMMTV-LUC 1G12-A5-CA
Sequence (P10275 1-920): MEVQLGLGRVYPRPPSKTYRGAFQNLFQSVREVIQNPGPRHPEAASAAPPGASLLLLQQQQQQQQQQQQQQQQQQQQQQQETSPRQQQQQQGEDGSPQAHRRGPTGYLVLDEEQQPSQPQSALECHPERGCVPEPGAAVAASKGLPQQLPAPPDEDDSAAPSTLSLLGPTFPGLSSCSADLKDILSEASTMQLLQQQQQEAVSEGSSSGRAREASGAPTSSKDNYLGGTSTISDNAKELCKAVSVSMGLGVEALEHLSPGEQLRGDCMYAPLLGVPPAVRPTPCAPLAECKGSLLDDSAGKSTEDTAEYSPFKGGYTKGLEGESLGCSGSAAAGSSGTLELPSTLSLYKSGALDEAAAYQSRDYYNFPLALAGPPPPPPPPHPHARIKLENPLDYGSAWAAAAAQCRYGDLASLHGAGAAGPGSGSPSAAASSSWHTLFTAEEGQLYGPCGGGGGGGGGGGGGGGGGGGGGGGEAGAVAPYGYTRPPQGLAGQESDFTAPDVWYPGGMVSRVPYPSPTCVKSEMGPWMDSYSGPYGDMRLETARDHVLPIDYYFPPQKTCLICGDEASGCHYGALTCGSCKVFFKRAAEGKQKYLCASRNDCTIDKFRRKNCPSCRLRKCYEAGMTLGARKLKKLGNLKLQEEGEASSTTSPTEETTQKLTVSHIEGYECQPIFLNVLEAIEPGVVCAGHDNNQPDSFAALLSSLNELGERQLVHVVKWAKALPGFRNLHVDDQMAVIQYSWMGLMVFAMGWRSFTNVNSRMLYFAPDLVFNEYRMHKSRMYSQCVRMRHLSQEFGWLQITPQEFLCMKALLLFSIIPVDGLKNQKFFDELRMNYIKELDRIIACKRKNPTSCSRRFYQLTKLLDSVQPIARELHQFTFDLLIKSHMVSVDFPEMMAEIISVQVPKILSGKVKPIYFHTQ
Assay method text: androgenic activity (EC50 and intrinsic activity), transactivation bioassay in CHO-AR-pMMTV-LUC cells (Table 4)
Type: cell-based
Condition notes: androgenic activity, read-out: ago EC50
pEC50: −log10 of the molar value.
Items are presented alongside their recorded pEC50.

Some entries whose results are on file:
# Record smiles, pEC50
data = [
    ("COc1ccc2c(Sc3ccccc3[N+](=O)[O-])cn(Cc3cc(F)ccc3C(F)(F)F)c2c1", "7.00 to 8.30"),
    ("CN(C)C(=O)c1ccc2c(Sc3ccccc3[N+](=O)[O-])cn(Cc3cc(F)cc(F)c3)c2c1", "> 8.30"),
    ("O=[N+]([O-])c1ccccc1Sc1cn(Cc2cc(F)cc(F)c2)c2ccc(O)cc12", "> 8.30"),
]

Query :: Suppose we examine the compound COc1ccc2c(Sc3cccc[n+]3[O-])cn(Cc3cc(F)cc(F)c3)c2c1 ; what pEC50 value has been reported?
Result :: > 6.00

Query :: What pEC50 value was documented for this compound, COc1ccc2c(Sc3ccccc3[N+](=O)[O-])cn(Cc3ccccc3)c2c1 ?
Result :: > 8.30

Query :: Data request, read-out pEC50, for Cc1cccc2c1c(Sc1ccccc1[N+](=O)[O-])cn2Cc1cc(F)cc(F)c1
Result :: 7.00 to 8.30
